Each record here notes measured Kd.
# measured.on: T1, human 5T4-His protein (human, UniProt Q13641 32-355)
# T1 construct: also called recombinant 5T4 protein (human 5T4-his tag); human 5T4 protein; not shown: His tag
# T1 sequence (looked up): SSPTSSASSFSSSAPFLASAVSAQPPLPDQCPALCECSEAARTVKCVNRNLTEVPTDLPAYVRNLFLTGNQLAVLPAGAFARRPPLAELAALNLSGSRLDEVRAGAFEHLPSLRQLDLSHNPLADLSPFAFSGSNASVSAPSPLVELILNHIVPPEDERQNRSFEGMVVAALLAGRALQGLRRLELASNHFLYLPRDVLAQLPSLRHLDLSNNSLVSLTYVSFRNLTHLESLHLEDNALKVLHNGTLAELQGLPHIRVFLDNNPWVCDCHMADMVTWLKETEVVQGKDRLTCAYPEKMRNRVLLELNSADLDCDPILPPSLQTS
# measurement.protocol: SPR Biacore, Protein A capture
readout.label: Kd

393E9_hVH1_hVL4 (antibody, V domains shown, humanized) VH: EVQLVESGGGLVQPGGSLRLSCAASGFTFTDYYMSWVRQAPGKGLEWVGFIRNKGNGYTTENSASVKGRFTISRDNSKSTLYLQMNSLRAEDTAVYYCARYRGNPHYAMDYWGQGTLVTVSS VL: DIVLTQSPLSLPVTPGEPASISCRASESVEFYGTSFLQWYLQKPGQSPQLLIYGASNVESGVPDRFSGSGSGTDFTLKISRVEAEDIGVYFCQQSRKVPSTFGGGTKVEIK : 599 pM
393E9_hVH6_hVL3 (antibody, V domains shown, humanized) VH: EVQLVESGGGLVQPGGSLRLSCAASGFTFTDYYMSWVRQAPGKGLEWVGFIRNKGNGYTTENSASVKGRFTISRDNAKSSLYLQMNSLRAEDTAVYYCARYRGNPHYAMDYWGQGTLVTVSS VL: DIQLTQSPSSLSASVGDRVTITCRASESVEFYGTSFLQWYQQKPGKAPKLLIYGASNVESGVPSRFSGSGSGTDFTLTISSLQPEDIATYFCQQSRKVPSTFGGGTKVEIK : 691 pM
393E9 chimeric antibody (antibody, V domains shown, chimeric mAb) VH: EVKLVESGGGLVQPGGSLSLSCAASGFTFTDYYMSWVRQPPGKALEWLGFIRNKGNGYTTENSASVKGRFTISRDNSQSILYLQMNALRAEDSATYYCARYRGNPHYAMDYWGQGTSVTVSS VL: DIVLTQFPASLAVSLGQRATISCRASESVEFYGTSFLQWYQQKPGQPPKLLIYGASNVESGVPARFSGSGSGTDFSLSIHPVEEDDIAMYFCQQSRKVPSTFGGGTKLEIK : 463 pM
393E9_hVH5_hVL3 (antibody, V domains shown, humanized; also called Hu393E9-53) VH: EVQLVESGGGLVQPGRSLRLSCTASGFTFTDYYMSWVRQAPGKGLEWVGFIRNKGNGYTTENSASVKGRFTISRDNSKSILYLQMNSLKTEDTAVYYCARYRGNPHYAMDYWGQGTLVTVSS VL: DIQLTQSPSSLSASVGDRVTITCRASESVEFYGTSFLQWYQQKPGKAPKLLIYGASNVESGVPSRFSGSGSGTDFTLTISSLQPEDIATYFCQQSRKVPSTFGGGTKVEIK : 700 pM
